Molecular target: T1, GFP-9S library array, motif 4 ND N98L;D124C (synthetic construct, N98L;D124C)
T1 chain: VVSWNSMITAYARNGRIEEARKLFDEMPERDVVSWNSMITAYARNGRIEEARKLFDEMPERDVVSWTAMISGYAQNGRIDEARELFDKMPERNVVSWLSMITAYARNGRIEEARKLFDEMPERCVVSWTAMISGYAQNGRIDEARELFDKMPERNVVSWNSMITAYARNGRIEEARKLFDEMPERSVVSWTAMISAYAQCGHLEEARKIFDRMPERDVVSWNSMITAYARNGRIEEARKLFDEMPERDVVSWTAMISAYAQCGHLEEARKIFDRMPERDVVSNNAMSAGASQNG
Experiment: high-throughput RNA pulldown from lysate on Ni-NTA beads; HRP: 50 mM Tris pH 8, 150 mM NaCl, 1 mM beta-mercaptoethanol, 50 ug/ml BSA, 3 ug/ml yeast RNA, 0.5% heparin; ITC and FP: Tris pH 8, 200 mM KCl, 5% glycerol; MST: 50 mM Tris pH 8, 200 mM NaCl, 1 mM DTT, BSA, heparin, 0.05% Tween 20
Conditions: tags: N-terminal His-eGFP; label: 5' IRDye 800CW
pKd: −log10 of the molar value.
# pKd annotations

- BINDER: "AUUAUACGUGA (ssRNA) [IR-rpoA-U]"
  pKd: 7.22
- BINDER: "AUUAAACGUGA (ssRNA) [IR-rpoA-A]"
  pKd: 7.01
